Taken from patent US20240245673A1.

Give measured IC50 for each item. Keep answers brief.
- measurement_target: SARS-CoV-2 Papain like protease (PLpro) (Severe acute respiratory syndrome coronavirus 2 (2019-nCoV) (SARS-CoV-2))
- test_name: Papain Like Protease (PLpro) biochemical assay with profluorogenic substrate Z-RLRGG-AMC
- test_context: SARS-CoV-2 PLpro 6.25 nM, 25 μM Z-RLRGG-AMC substrate, 60 minute reaction; read-out: IC50
Answers are plain numbers, in nM.

Example entries begin here.
COC(=O)c1c[nH]c(-c2cc(C(C)NC(=O)c3cc(N4CCN(C)CC4)ccc3C)c3ccccc3c2)c1 (centres unmarked) :: 7
Cc1ccc(NC(=O)[C@H]2CCCCN2)cc1C(=O)N[C@H](C)c1cc(N)nc2ccccc12 (single isomer, unassigned) [Example 27] :: 57
Cc1ccc(NC(=O)[C@H]2CCCCN2)cc1C(=O)N[C@H](C)c1cc(-c2ccn[nH]2)cc2ccccc12 (single isomer, unassigned) [Example 68] :: 9
COC(=O)c1cc(-c2cc([C@@H](C)NC(=O)c3cc(CN)ccc3C)c3ccccc3n2)n(C)c1 :: 231

Provide IC50 values for the following items, in order.
1. CNCc1ccc(C)c(C(=O)NC(C)c2cc(-c3cnn(C)c3)cc3ccccc23)c1 (centres unmarked)
2. Cc1cnc(N2CC3CCC2CN3)cc1C(=O)NC1(c2cc(-c3cnn(C)c3)nc3ccccc23)CC1 (centres unmarked)
3. COc1cc(-c2cc(C(C)NC(=O)c3ccccc3C)c3ccccc3n2)ccn1 (centres unmarked)
4. Cc1ccc(NC(=O)[C@H]2CCCCN2)cc1C(=O)N[C@H](C)c1cc(-c2ccn[nH]2)cc2ccccc12 (single isomer, unassigned) [Example 69]
5. CNCc1ccc(C)c(C(=O)N[C@H](C)c2cc(-c3cn[nH]c3)nc3ccccc23)c1
6. Cc1cc(CN(C)C(=O)c2ncc[nH]2)ccc1C(=O)N[C@H](C)c1cc(-c2cnn(C)c2)nc2ccccc12

Response:
1: 33; 2: 6; 3: 280; 4: 908; 5: 22; 6: 140

Prompt: Quick check: IC50 of Cc1ccccc1C(=O)NC(C)c1cc(-c2ccsc2)nc2ccccc12 (centres unmarked) ?
Response: 244

* * *

- measurement_target: SARS-CoV-2 Papain like protease (PLpro) (Severe acute respiratory syndrome coronavirus 2 (2019-nCoV) (SARS-CoV-2))
- test_name: Papain Like Protease (PLpro) biochemical assay with profluorogenic substrate Z-RLRGG-AMC
- test_context: SARS-CoV-2 PLpro 6.25 nM, 25 μM Z-RLRGG-AMC substrate, 60 minute reaction; read-out: IC50
pIC50: −log10 of the molar value.
Rule: 1 for pIC50 not less than 8, -1 for anything less.

Reference set (5 entries):
COC[C@H](OCc1cscn1)c1ccc(C(=O)NC2(c3cc(-c4cc(C(=O)N(C)C)n[nH]4)nc4ccccc34)CC2)c(C)c1 (single isomer, unassigned) [Example 337] :: 1
CNCc1ccc(C)c(C(=O)N[C@H](C)c2cc(-c3cnn(C)c3)nc3ccccc23)c1 [Example 13] :: -1
COC[C@H](OCc1cscn1)c1ccc(C(=O)NC2(c3cc(-c4cc(C(=O)N(C)C)n[nH]4)cc4ncccc34)CC2)c(C)c1 (single isomer, unassigned) [Example 361] :: 1
Cc1ccccc1C(=O)NC(C)c1cc(CCn2cccn2)nc2ccccc12 (stereo in doubt) [Example 157] :: -1
Cc1ccccc1C(=O)NC(C)c1cc(-c2cncnc2)nc2ccccc12 (stereo not shown) [Example 130] :: -1

Prompt: API: above_or_equal(metric=pIC50, cutoff=8) for item CCOC(=O)/C=C/C(=O)NNC(=O)CCc1ccccc1C(=O)N[C@H](C)c1cc(-c2cnn(C)c2)nc2ccccc12 [Example 232]
Response: 1

Prompt: API: above_or_equal(metric=pIC50, cutoff=8) for item CC(=O)Nc1cc([C@@H](C)NC(=O)c2ccccc2C)c2ccccc2n1 [Example 40]
Response: -1

* * *

- measurement_target: SARS-CoV-2 Papain like protease (PLpro) (Severe acute respiratory syndrome coronavirus 2 (2019-nCoV) (SARS-CoV-2))
- test_name: Papain Like Protease (PLpro) biochemical assay with profluorogenic substrate Z-RLRGG-AMC
- test_context: SARS-CoV-2 PLpro 6.25 nM, 25 μM Z-RLRGG-AMC substrate, 60 minute reaction; read-out: IC50
measured_attribute: log10 of IC50 (log10 of the value in nM)
Reminder: these figures are log10 of reported IC50, in nM before transformation.

Example entries begin here.
Cc1ccccc1C(=O)N[C@H](C)c1cc(-c2ccn[nH]2)nc2ccccc12 :: 2.45
Cc1cc(C(=O)NC(C)c2ncc[nH]2)ccc1C(=O)N[C@H](C)c1cc(-c2cnn(C)c2)nc2ccccc12 (stereo partly shown) :: 1.54

Provide log10 of IC50 values for the following items, in order.
1. Cc1ccccc1C(=O)NC(C)c1cc(NCC2CCCOC2)nc2ccccc12 (stereo not shown)
2. Cc1ccc(N2CCNCC2)cc1C(=O)NC1(c2cc(-c3ccc(C(=O)N(C)C)[nH]3)cc3ccccc23)CC1
3. Cc1cc(CC(=O)O)ccc1C(=O)N[C@H](C)c1cc(-c2cnn(C)c2)nc2ccccc12

Response:
[3.29, 0.48, 2.90]

* * *

- measurement_target: SARS-CoV-2 Papain like protease (PLpro) (Severe acute respiratory syndrome coronavirus 2 (2019-nCoV) (SARS-CoV-2))
- test_name: Papain Like Protease (PLpro) biochemical assay with profluorogenic substrate Z-RLRGG-AMC
- test_context: IC50 (μM), SARS-CoV-2 PLpro 6.25 nM, 25 μM Z-RLRGG-AMC substrate, 60 minute reaction
measured_attribute: log10 of IC50 (log10 of the value in µM)
Reminder: these figures are log10 of reported IC50, in µM before transformation.

Cc1cc(COCc2cscn2)ccc1C(=O)N[C@H](C)c1cc(-c2cnn(C)c2)nc2ccccc12 [Example 274] :: -2.70
Cc1ccc(N2CC3CC(C2)N3C)cc1C(=O)N[C@H](C)c1cc(-c2cnn(C)c2)nc2ccccc12 [Example 252] :: -2.30
Cc1cnc(N2CC3CCC(C2)N3)cc1C(=O)NC1(c2cc(-c3cnn(C)c3)nc3ccccc23)CC1 [Example 285] :: -2.52
Cc1ccc(N2CC3CC(C2)N3)cc1C(=O)N[C@H](C)c1cc(-c2cnn(C)c2)nc2ccccc12 [Example 251] :: -2.30
Cc1ccc(N2CC3CC(C2)N3)cc1C(=O)NC1(c2cc(-c3cnn(C)c3)nc3ccccc23)CC1 [Example 289] :: -3.00
Cc1ccc(N2CCN(C)CC2)cc1C(=O)NC1(c2cc(-c3cnn(C)c3)cc3ccccc23)CC1 [Example 231] :: -2.52

We next turn to a different compound, shown below.
Prompt: Quick check: log10 of IC50 of Cc1ccc(CN)cc1C(=O)NC(C)c1cc(-n2ccnc2)nc2ccccc12 (stereo not shown) [Example 36] ?
Response: -0.68

* * *

- measurement_target: SARS-CoV-2 Papain like protease (PLpro) (Severe acute respiratory syndrome coronavirus 2 (2019-nCoV) (SARS-CoV-2))
- test_name: Papain Like Protease (PLpro) biochemical assay with profluorogenic substrate Z-RLRGG-AMC
- test_context: SARS-CoV-2 PLpro 6.25 nM, 25 μM Z-RLRGG-AMC substrate, 60 minute reaction; read-out: IC50
Give measured pIC50 for each item. Keep answers brief.
Answers are plain numbers, as −log10 of the molar value.

Example entries begin here.
Cc1ccccc1C(=O)NC(C)c1cc(CC#N)nc2ccccc12 (stereo in doubt) :: 5.70
Cc1cc(C(=O)NC(C)c2cscn2)ccc1C(=O)N[C@H](C)c1cc(-c2cnn(C)c2)nc2ccccc12 (stereo partly drawn) :: 7.92
Cc1ccccc1C(=O)NC(C)c1cc(-c2cc(C(C)C)no2)nc2ccccc12 (stereo not drawn) :: 6.20
Cc1cc(C2(NC(=O)c3cscn3)CC2)ccc1C(=O)N[C@H](C)c1cc(-c2cnn(C)c2)nc2ccccc12 :: 7.24

Provide pIC50 values for the following items, in order.
1. Cc1ccc(N2CC3CNCC3C2)cc1C(=O)N[C@H](C)c1cc(-c2cnn(C)c2)nc2ccccc12 (stereo partly drawn)
2. CCOC(=O)[C@@H]1O[C@H]1C(=O)NNC(=O)CCc1ccccc1C(=O)N[C@H](C)c1cc(-c2cnn(C)c2)nc2ccccc12
3. Cc1ccc(CN)cc1C(=O)NC(C)c1cc(-n2cc(C(F)(F)F)nn2)nc2ccccc12 (stereo not drawn)
4. COC(=O)/C=C/C(=O)NNC(=O)CCc1ccccc1C(=O)N[C@H](C)c1cc(-c2cnn(C)c2)nc2ccccc12
5. Cc1ccccc1C(=O)N[C@H](C)c1cc(N)nc2ccccc12

Response:
1. 7.68
2. 8.70
3. 6.17
4. 8.52
5. 6.06

Provide pIC50 values for the following items, in order.
1. C[C@@H](NC(=O)c1ccccc1CCC(=O)NNC(=O)/C=C/C(=O)N(C)C)c1cc(-c2cnn(C)c2)nc2ccccc12
2. COCc1cc(-c2cc(C(C)NC(=O)c3ccccc3C)c3ccccc3n2)cs1 (stereo not drawn)
3. Cc1ccccc1C(=O)NC(C)c1cc(-c2cn[nH]c2)nc2ccccc12 (stereo not drawn)
4. Cc1ccc(CN)cc1C(=O)N[C@H](C)c1cc(-c2cc(C(=O)N(C)C)c[nH]2)nc2ccccc12
5. Cc1cc(C(O)C(=O)Nc2cscn2)ccc1C(=O)N[C@H](C)c1cc(-c2cnn(C)c2)nc2ccccc12 (stereo partly drawn)
6. Cc1ccccc1C(=O)NC(C)c1cc(-c2ccc3nonc3c2)nc2ccccc12 (stereo not drawn)
7. COC(=O)c1ccc(-c2cc(C(C)NC(=O)c3ccccc3C)c3ccccc3n2)o1 (stereo not drawn)
8. CNC(=O)c1c[nH]c(-c2cc(C(C)NC(=O)c3cc(CN)ccc3C)c3ccccc3c2)c1 (stereo not drawn)

Response:
[6.89, 6.62, 6.70, 7.70, 9.00, 4.76, 6.41, 7.80]

Provide pIC50 values for the following items, in order.
1. Cc1ccc(NC(=O)[C@H]2CCCCN2)cc1C(=O)NC(C)c1cc(-c2cn[nH]c2)cc2ccccc12 (stereo partly drawn) [Example 51]
2. Cc1ccccc1C(=O)N[C@H](C)c1cc(OC2CCOC2)nc2ccccc12 (stereo partly drawn)
3. COC[C@@H](OCc1cscn1)c1ccc(C(=O)N[C@H](C)c2cc(-c3cnn(C)c3)nc3ccccc23)c(C)c1 (single isomer, unassigned)
4. Cc1ccc(CN)cc1C(=O)N[C@H](C)c1cc(-c2cnn(C)c2)cc2ccccc12 (single isomer, unassigned) [Example 8]
5. Cc1ccc(CN)cc1C(=O)N[C@H](C)c1cc(-c2cc(C(=O)O)c[nH]2)nc2ccccc12
6. Cc1cc(CC(=O)Nc2cncs2)ccc1C(=O)N[C@H](C)c1cc(-c2cnn(C)c2)nc2ccccc12
7. COCCOc1cc([C@@H](C)NC(=O)c2ccccc2C)c2ccccc2n1
8. Cc1ccc(NC(=O)[C@H]2CCCCN2)cc1C(=O)NC(C)c1cc(-c2ccn[nH]2)cc2ccccc12 (mixture of isomers)

Response:
1. 7.72
2. 5.44
3. 8.70
4. 7.60
5. 7.39
6. 7.44
7. 5.50
8. 7.68

Provide pIC50 values for the following items, in order.
1. Cc1cc(CC(=O)Nc2nccs2)ccc1C(=O)N[C@H](C)c1cc(-c2cnn(C)c2)nc2ccccc12
2. Cc1ccc(CN)cc1C(=O)N[C@H](C)c1cc(-n2cncn2)nc2ccccc12

Response:
[7.80, 6.60]
